Hi there, I'd appreciate the recorded MIC50 for every entry that follows.
# Tested on: Cryptococcus neoformans
# Assay notes: Antifungal activity against Cryptococcus neoformans PMC 2102 after 72 hrs by CLSI broth microdilution method
# Type: functional
# Reported conditions: PMC 2102, 72 h
# output: bare number, implied unit µg/mL

For this compound ( O=C(Nc1ccc(N2CCN(c3ccc(Cl)cc3)CC2)cc1)OC(Cn1ccnc1)c1ccc(F)cc1 (centres undefined) ), measured MIC50 is 0.25

For this compound ( O=C(OC(Cn1ccnc1)c1ccc(F)cc1)N1CCN(c2ccc(Cl)cc2)CC1 (centres undefined) ), measured MIC50 is 4

For this compound ( O=C(OC(Cn1ccnc1)c1ccc(F)cc1)N1CCN(c2ncccc2[N+](=O)[O-])CC1 (centres undefined) ), measured MIC50 is 8

For this compound ( O=C(OC(Cn1ccnc1)c1ccc(Cl)cc1)N1CCN(C(=O)c2ccco2)CC1 (centres undefined) ), measured MIC50 is 128

For this compound ( O=C(O[C@H](Cn1ccnc1)c1ccc(Cl)cc1)N1CCN(c2ccc(Cl)cc2)CC1 ), measured MIC50 is 4

For this compound ( O=C(Nc1ccc(N2CCN(c3ccc(Cl)cc3)CC2)cc1)O[C@H](Cn1ccnc1)c1ccc(F)cc1 ), measured MIC50 is 2

For this compound ( O=C(O[C@@H](Cn1ccnc1)c1ccc(Cl)cc1)N1CCN(c2ccc(Cl)cc2)CC1 ), measured MIC50 is 4

For this compound ( O=C(Nc1ccc(N2CCN(c3ccc(Cl)cc3)CC2)cc1)O[C@@H](Cn1ccnc1)c1ccc(F)cc1 ), measured MIC50 is 0.25

For this compound ( O=C(Nc1ccc(N2CCN(C(=O)c3ccco3)CC2)cc1)OC(Cn1ccnc1)c1ccc(F)cc1 (centres undefined) ), measured MIC50 is 32

----------
# Test system: Pichia kudriavzevii
# Assay notes: Antifungal activity against Candida krusei PMC 0613 after 48 hrs by CLSI broth microdilution method
# Format: functional
# Reported conditions: PMC 0613, 48 h
Attribute measured: log10 of MIC50 (log10 of the value in µg/mL)
In our notation, the value equals log10 of MIC50 in µg/mL.

For this molecule ( O=C(O[C@H](Cn1ccnc1)c1ccc(Cl)cc1)N1CCN(c2ccc(Cl)cc2)CC1 ), measured log10 of MIC50 is -0.30

For this molecule ( O=C(Nc1ccc(N2CCN(c3ccc(Cl)cc3)CC2)cc1)OC(Cn1ccnc1)c1ccc(F)cc1 (stereo unspecified) ), measured log10 of MIC50 is -0.90

For this molecule ( O=C(OC(Cn1ccnc1)c1ccc(Cl)cc1)N1CCN(c2ccc([N+](=O)[O-])cc2)CC1 (stereo unspecified) ), measured log10 of MIC50 is 1.20

For this molecule ( O=C(OC(Cn1ccnc1)c1ccc(F)cc1)N1CCN(c2ccc([N+](=O)[O-])cc2)CC1 (stereo unspecified) ), measured log10 of MIC50 is 1.20

For this molecule ( O=C(Nc1ccc(N2CCN(c3ccc(Cl)cc3)CC2)cc1)O[C@H](Cn1ccnc1)c1ccc(F)cc1 ), measured log10 of MIC50 is 0.00

For this molecule ( O=C(Nc1ccc(N2CCN(c3ccc(Cl)cc3)CC2)cc1)O[C@@H](Cn1ccnc1)c1ccc(F)cc1 ), measured log10 of MIC50 is -1.20

----------
# System: Candida albicans
# Assay notes: Antifungal activity against Candida albicans PMC 1042R after 48 hrs by CLSI broth microdilution method
# Type: functional
Attribute measured: MIC50 (µg/mL)
# output: bare number, implied unit µg/mL

For this compound ( O=C(Nc1ccc(N2CCN(c3ccc(Cl)cc3)CC2)cc1)O[C@@H](Cn1ccnc1)c1ccc(F)cc1 ), measured MIC50 is 1

For this compound ( O=C(OC(Cn1ccnc1)c1ccc(Cl)cc1)N1CCN(c2ccc(Cl)cc2)CC1 (stereo not given) ), measured MIC50 is 4

For this compound ( OC(Cn1cncn1)(Cn1cncn1)c1ccc(F)cc1F ), measured MIC50 is 16

For this compound ( O=C(O[C@H](Cn1ccnc1)c1ccc(Cl)cc1)N1CCN(c2ccc(Cl)cc2)CC1 ), measured MIC50 is 1

For this compound ( O=C(Nc1ccc(N2CCN(c3ccc(Cl)cc3)CC2)cc1)OC(Cn1ccnc1)c1ccc(F)cc1 (stereo not given) ), measured MIC50 is 2
